Source: patent US20250270315A1

target: cyno SIRPα stably expressed on CHOK1 cells (cyno); assay: FACS, CHOK1-cyno SIRPα cells
Endpoint label: MFI at 10 nM (MFI)
Numbers only here, please. The scale is MFI.

Bench note: what MFI at 10 nM did 042 (antibody, V domains shown) VH: QIQLVQSGPELKKPGETVKISCRASGYTFTTYGMSWVKQAPGKGLRWMGWINTYSGVSTCADDFKGRFAFSLETSATTAYLQIHNLTNEDTATYFCARDPHSYGNSPAWFPYWGQGTLVTVSA VL: DIVMTQSQKFMSTTIRDRVSITCKASQNVGISVAWYQQKSGQSPKLLIYSASNRYTGVPDRFTGSGSGTDFTLTISNMQSEDLADYFCQQYSSYPLTFGSGTKLAIK show?
6850
